We begin with a simple list: items and their reported pIC50.
- TGT: Peroxisome proliferator-activated receptor gamma (Homo sapiens, UniProt P37231)
- Sequence (P37231 whole entry): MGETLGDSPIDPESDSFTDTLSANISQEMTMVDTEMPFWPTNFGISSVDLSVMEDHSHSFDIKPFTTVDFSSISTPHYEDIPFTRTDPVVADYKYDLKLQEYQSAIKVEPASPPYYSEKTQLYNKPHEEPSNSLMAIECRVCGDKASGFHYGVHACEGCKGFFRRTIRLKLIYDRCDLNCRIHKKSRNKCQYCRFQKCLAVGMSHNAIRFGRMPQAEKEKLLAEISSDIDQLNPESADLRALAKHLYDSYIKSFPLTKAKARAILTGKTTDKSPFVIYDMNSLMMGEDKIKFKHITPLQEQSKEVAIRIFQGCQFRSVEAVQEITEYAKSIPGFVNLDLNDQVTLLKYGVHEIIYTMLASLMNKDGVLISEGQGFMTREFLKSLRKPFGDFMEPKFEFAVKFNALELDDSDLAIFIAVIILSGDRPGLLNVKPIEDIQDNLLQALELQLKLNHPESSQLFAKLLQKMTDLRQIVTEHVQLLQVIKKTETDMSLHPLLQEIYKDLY
- TEST: Agonist activity at N-terminal His-tagged human PPARgamma ligand binding domain by fluorescence polarization assay
// scale note: pIC50 = -log10(conc_M); give the bare number

INSERT INTO results (line_notation, value) VALUES
  ('Cc1ccc(COc2ccccc2/C=C2/SC(=S)N(CCC(=O)O)C2=O)cc1', 5.88);

Then this compound:
Query (compound): "O=C(O)CCN1C(=O)/C(=C\c2ccc(Cl)cc2Cl)SC1=S" ; field requested: pIC50 6.06
